# credit: BigSolDB 2.1

# Test Context: in acetic acid, 308.15 K
Measured Parameter: solubility (mole fraction)

### Prompt Report solubility (mole fraction), nothing else, for this compound: CC(O)(P(=O)(O)O)P(=O)(O)O.O
### Response 0.002

----------
# Test Context: in acetic acid, 323.15 K
Measured Parameter: solubility (mole fraction)
Numbers only.

### Prompt Report solubility (mole fraction), nothing else, for this compound: CC(O)(P(=O)(O)O)P(=O)(O)O.O
### Response 0.00225

----------
# Test Context: in acetic acid, 303.15 K
Measured Parameter: solubility (mole fraction)

### Prompt Report solubility (mole fraction), nothing else, for this molecule: CC(O)(P(=O)(O)O)P(=O)(O)O.O
### Response 0.00196

----------
# Test Context: in water, 318.15 K
Measured Parameter: solubility (mole fraction)
Numbers only.

### Prompt Report solubility (mole fraction), nothing else, for this molecule: CC(O)(P(=O)(O)O)P(=O)(O)O.O
### Response 0.215

----------
# Test Context: in water, 323.15 K
Measured Parameter: solubility (mole fraction)

### Prompt Report solubility (mole fraction), nothing else, for this molecule: CC(O)(P(=O)(O)O)P(=O)(O)O.O
### Response 0.225

----------
# Test Context: in water, 293.15 K
Measured Parameter: solubility (mole fraction)
One number for each entry.

### Prompt Report solubility (mole fraction), nothing else, for this compound: CC(O)(P(=O)(O)O)P(=O)(O)O.O
### Response 0.174

----------
# Test Context: in water, 328.15 K
Measured Parameter: solubility (mole fraction)
One number for each entry.

### Prompt Report solubility (mole fraction), nothing else, for this compound: CC(O)(P(=O)(O)O)P(=O)(O)O.O
### Response 0.235

----------
# Test Context: in acetic acid, 313.15 K
Measured Parameter: solubility (mole fraction)

### Prompt Report solubility (mole fraction), nothing else, for this compound: CC(O)(P(=O)(O)O)P(=O)(O)O.O
### Response 0.002

----------
# Test Context: in water, 313.15 K
Measured Parameter: solubility (mole fraction)
Answers are plain numbers.

### Prompt Report solubility (mole fraction), nothing else, for this compound: CC(O)(P(=O)(O)O)P(=O)(O)O.O
### Response 0.207

----------
# Test Context: in water, 308.15 K
Measured Parameter: solubility (mole fraction)
Numbers only.

### Prompt Report solubility (mole fraction), nothing else, for this compound: CC(O)(P(=O)(O)O)P(=O)(O)O.O
### Response 0.198

----------
# Test Context: in acetic acid, 328.15 K
Measured Parameter: solubility (mole fraction)
Give bare numbers.

### Prompt Report solubility (mole fraction), nothing else, for this compound: CC(O)(P(=O)(O)O)P(=O)(O)O.O
### Response 0.00224

----------
# Test Context: in acetic acid, 293.15 K
Measured Parameter: solubility (mole fraction)

### Prompt Report solubility (mole fraction), nothing else, for this compound: CC(O)(P(=O)(O)O)P(=O)(O)O.O
### Response 0.00181

----------
# Test Context: in acetic acid, 318.15 K
Measured Parameter: solubility (mole fraction)

### Prompt Report solubility (mole fraction), nothing else, for this compound: CC(O)(P(=O)(O)O)P(=O)(O)O.O
### Response 0.00214

----------
# Test Context: in water, 298.15 K
Measured Parameter: solubility (mole fraction)
One number for each entry.

### Prompt Report solubility (mole fraction), nothing else, for this compound: CC(O)(P(=O)(O)O)P(=O)(O)O.O
### Response 0.182
